- Tested on: Escherichia coli TOP10;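 also: peptides expressed intracellularly from a pBAD plasmid library in pooled LB shake-flask culture, induced with 0.3% L-arabinose, DNA abundance read by NGS, three biological replicates, DESeq2 with apeglm shrinkage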
- test: shrunken log2 fold change of peptide-encoding DNA abundance (4.5 h post-induction vs induction); higher = less antimicrobial activity (less host growth inhibition)
- reported conditions: time post-induction: 4.5 h; library: site-saturation at positions 5, 18, 19, 20
Group membership follows shrunken log2 fold change per the scheme lower segment = under -0.01, middle segment = from -0.01 up to 0.2, upper segment = 0.2 and over

residue codes	classification
RRIRCRPPRLPRPRPRPRFMPRP	lower segment
RRIRCRPPRLPRPRPRPLECPRP	lower segment
RRIRDRPPRLPRPRPRPETNPRP	upper segment
RRIRCRPPRLPRPRPRPVGIPRP	lower segment
RRIRARPPRLPRPRPRPKWDPRP	upper segment
RRIRARPPRLPRPRPRPWAWPRP	upper segment
RRIRGRPPRLPRPRPRPHVNPRP	upper segment
RRIRKRPPRLPRPRPRPNNNPRP	lower segment
RRIRWRPPRLPRPRPRPTLFPRP	middle segment
RRIRTRPPRLPRPRPRPVCMPRP	lower segment
RRIRQRPPRLPRPRPRPCNFPRP	middle segment
RRIRWRPPRLPRPRPRPTTDPRP	upper segment
RRIRHRPPRLPRPRPRPHVKPRP	middle segment
RRIRMRPPRLPRPRPRPHQYPRP	lower segment
RRIRIRPPRLPRPRPRPIMHPRP	lower segment
RRIRRRPPRLPRPRPRPTPRPRP	upper segment
RRIRERPPRLPRPRPRPWARPRP	lower segment
RRIRVRPPRLPRPRPRPKQTPRP	lower segment
RRIRTRPPRLPRPRPRPPMDPRP	middle segment
RRIRHRPPRLPRPRPRPVNIPRP	lower segment
RRIRGRPPRLPRPRPRPRCKPRP	upper segment
RRIRARPPRLPRPRPRPHQWPRP	middle segment
RRIRTRPPRLPRPRPRPTRFPRP	upper segment
RRIRARPPRLPRPRPRPDFKPRP	middle segment
RRIRRRPPRLPRPRPRPELDPRP	middle segment
RRIRGRPPRLPRPRPRPLCNPRP	upper segment
RRIRLRPPRLPRPRPRPEMAPRP	middle segment
RRIRDRPPRLPRPRPRPSGLPRP	upper segment
RRIRQRPPRLPRPRPRPPFPPRP	upper segment
RRIRFRPPRLPRPRPRPQAQPRP	middle segment
RRIRGRPPRLPRPRPRPQNQPRP	middle segment
RRIRYRPPRLPRPRPRPDKAPRP	middle segment
RRIRDRPPRLPRPRPRPVDTPRP	lower segment
RRIRVRPPRLPRPRPRPDHQPRP	middle segment
RRIRWRPPRLPRPRPRPQEPPRP	upper segment
RRIRMRPPRLPRPRPRPLEDPRP	upper segment
RRIRGRPPRLPRPRPRPPIQPRP	upper segment
RRIRRRPPRLPRPRPRPVCDPRP	upper segment
RRIRERPPRLPRPRPRPMYNPRP	lower segment
RRIRGRPPRLPRPRPRPSFWPRP	upper segment
RRIRQRPPRLPRPRPRPQAVPRP	middle segment
RRIRERPPRLPRPRPRPWGVPRP	lower segment
RRIRHRPPRLPRPRPRPMPMPRP	middle segment
RRIRFRPPRLPRPRPRPPHEPRP	lower segment
RRIRPRPPRLPRPRPRPQCCPRP	middle segment
RRIRYRPPRLPRPRPRPCAMPRP	middle segment
RRIRIRPPRLPRPRPRPVHLPRP	lower segment
RRIRQRPPRLPRPRPRPVGEPRP	upper segment
RRIRGRPPRLPRPRPRPRLMPRP	upper segment
RRIRPRPPRLPRPRPRPENEPRP	middle segment
RRIRHRPPRLPRPRPRPFTQPRP	lower segment
RRIRLRPPRLPRPRPRPKFCPRP	lower segment
RRIRRRPPRLPRPRPRPKDPPRP	middle segment
RRIRDRPPRLPRPRPRPHDKPRP	middle segment
RRIRIRPPRLPRPRPRPAYAPRP	lower segment
RRIRMRPPRLPRPRPRPDPDPRP	upper segment
RRIRTRPPRLPRPRPRPDPWPRP	middle segment
RRIRCRPPRLPRPRPRPGHDPRP	middle segment
RRIRVRPPRLPRPRPRPDYGPRP	lower segment
RRIRQRPPRLPRPRPRPTPCPRP	lower segment
RRIRSRPPRLPRPRPRPLYWPRP	lower segment
RRIRHRPPRLPRPRPRPERGPRP	upper segment
